Ref: PubChem BioAssay (NCI)

Entries and their measured growth follow.
Tested on: SK-OV-3 ovarian
EXPERIMENT: NCI-60 one-dose screen, 48 h (100 = growth as untreated, 0 = no growth, -100 = all killed)
PROTOCOL CONDITIONS: 10 µM unless noted
About 83,000 compounds went through this panel and 20% of them were active in at least one assay; those are over-represented in the sample as a whole.
The figure you give is taken to be in %; do not add the unit.

compound=CC12O[C@H](C[C@@H](OC(=O)CCC(=O)O)[C@H]1O)n1c3ccccc3c3c4c(c5c6ccccc6n2c5c31)C(=O)NC4=O recorded_metric=growth result_number=-8.63
compound=C#Cc1cccc(Nc2ncnc3cc(OC)c(OCCCCCCC(=O)NO)cc23)c1 recorded_metric=growth result_number=-58.2
compound="CC(=O)CC1CCCC1c1ccc2ccccc2c1 (configuration not stated)" recorded_metric=growth result_number=101
compound=CC(C)c1ccc(/C=N/Nc2nc3ccccc3s2)cc1 recorded_metric=growth result_number=89.4
compound="CO[C@H](C(=O)N[C@@H](CCCCNC(=O)OCc1ccccc1)C(=O)OC(C)(C)C)[C@@H]1Cc2cc3cc(OC4CC(OC5CC(O)C(O)C(C)O5)C(O)C(C)O4)c(C)c(O)c3c(O)c2C(=O)[C@H]1OC1CC(OC2CC(OC3CC(C)(O)C(O)C(C)O3)C(O)C(C)O2)C(O)C(C)O1 (some centres not stated)" recorded_metric=growth result_number=-52.7

Prompt: Entry `CC(C)OP(=O)(CCC(=O)c1c[nH]c2ccccc12)OC(C)C` : reported growth = ?
Completion: 89

----------
Entries and their measured growth follow.
Tested on: HCT-116 colon
EXPERIMENT: NCI-60 one-dose screen, 48 h (100 = growth as untreated, 0 = no growth, -100 = all killed)
PROTOCOL CONDITIONS: 10 µM unless noted
The panel holds about 83,000 compounds, 20% with a hit somewhere; the sample as a whole holds those more often.
The figure you give is taken to be in %; do not add the unit.

smiles_repr=Nc1c2c(c(O)c3c1=C(CO)C=N3)=NCCS2 result_number=-90.7

Prompt: Entry `O=C(CNc1nc2ccccc2s1)Nc1ccc(-c2nc3ccccc3s2)cc1` : reported growth = ?
Completion: 98.9

Prompt: Entry `CCCCCc1ccc(C)cc1OC(=O)CCl` : reported growth = ?
Completion: 109

Prompt: Entry `C=CC[n+]1c(/C=C/C=C2\N(C)c3ccccc3C2(C)C)sc2ccc(OC)cc21` : reported growth = ?
Completion: 11.6

Prompt: Entry `COc1cc(Nc2ncc(F)c(Nc3ccc4c(n3)N(COP(=O)(O)O)C(=O)C(C)(C)O4)n2)cc(OC)c1OC` : reported growth = ?
Completion: 22.1

----------
Test system: U251 CNS
EXPERIMENT: NCI-60 one-dose screen, 48 h (100 = growth as untreated, 0 = no growth, -100 = all killed)
PROTOCOL CONDITIONS: 10 µM unless noted
About 83,000 compounds went through this panel and 20% of them were active in at least one assay; those are over-represented in the sample as a whole. Calls of active or inactive are those of the source. How the source made its calls: active means growth percent below 10; inactive means the rest.
Entries and their measured growth follow.

compound=Cc1cc(C2(c3ccc(O)c(C)c3)OS(=O)(=O)c3ccccc32)ccc1O tested_system="U251 CNS" result="107% (inactive)"
compound=COc1ccc(-c2nc(N)ncc2Oc2ccccc2OC)c(O)c1 tested_system="U251 CNS" result="30.6% (inactive)"
compound=COCC(=O)NC/C=C/c1ccc2ncnc(Nc3ccc(Oc4ccc(C)nc4)c(C)c3)c2c1 tested_system="U251 CNS" result="62.9% (inactive)"

Prompt: Please tell me: growth of `CC(C)(C)c1nc(-c2cccc(NS(=O)(=O)c3c(F)cccc3F)c2F)c(-c2ccnc(N)n2)s1` , system U251 CNS?
Completion: 113% (inactive)

Prompt: Please tell me: growth of `COc1ccc(S(=O)(=O)N(C(C)=O)c2ccccc2/C=C/c2cc[n+]([O-])cc2)cc1` , system U251 CNS?
Completion: 9.19% (active)

Prompt: Please tell me: growth of `CN(C)C1CCN(C(=O)c2ccc(NC(=O)Nc3ccc(-c4nc(N5CCOCC5)nc(N5CCOCC5)n4)cc3)cc2)CC1` , system U251 CNS?
Completion: -10.5% [2.5 µM] (active)

Prompt: Please tell me: growth of Cc1ccsc1C(NC(=O)c1ccccc1)c1cc(Cl)c2cccnc2c1O (stereo not given) , system U251 CNS?
Completion: 6.52% (active)

Prompt: Please tell me: growth of `Nc1nc(Nc2ccccc2)c(C=Nc2ccccc2)c(=O)[nH]1` , system U251 CNS?
Completion: 89.1% (inactive)

Prompt: Please tell me: growth of `Cc1cc(Nc2cc(N3CCN(C)CC3)nc(/C=C/c3ccccc3)n2)n[nH]1` , system U251 CNS?
Completion: -29.9% (active)

Prompt: Please tell me: growth of `CC(C)OP(=O)(CCC(=O)c1c[nH]c2ccccc12)OC(C)C` , system U251 CNS?
Completion: 90.1% (inactive)

----------
Tested on: NCI/ADR-RES ovarian
EXPERIMENT: NCI-60 one-dose screen, 48 h (100 = growth as untreated, 0 = no growth, -100 = all killed)
PROTOCOL CONDITIONS: 10 µM unless noted
About 83,000 compounds went through this panel and 20% of them were active in at least one assay; those are over-represented in the sample as a whole.
Mark True for growth under 80%, False if at or over.

Solved entries:
compound=CC(=O)Nc1cccc(-n2c(=O)n(C3CC3)c(=O)c3c(Nc4ccc(I)cc4F)n(C)c(=O)c(C)c32)c1 class=True
compound=CC(C)(C)c1ccc(Cn2cc(CSc3nc4ccccc4s3)nn2)cc1 class=False
compound=COc1cc(NCCN(CC(C)C)CC(C)C)c2ncc(C)cc2c1 class=True
compound=COc1ccc2c(CCCc3ccc(Cl)cc3Cl)c3[n+](cc2c1OC)CCc1cc2c(cc1-3)OCO2 class=True
compound="COC(=O)[C@H](Cc1ccc(O)cc1)NC(=O)[C@@H](OC)[C@@H]1Cc2cc3cc(OC4CC(OC5CC(O)C(O)C(C)O5)C(O)C(C)O4)c(C)c(O)c3c(O)c2C(=O)[C@H]1OC1CC(OC2CC(OC3CC(C)(O)C(O)C(C)O3)C(O)C(C)O2)C(O)C(C)O1 (stereo partly drawn)" class=False

Prompt: Hello, I'm reviewing records and need to know if growth of `COc1cnc2c(c1)C(=O)c1c-2n(CCCN2CCC(N)CC2)c(=O)c2cc([N+](=O)[O-])ccc12` is below 80%. Could you check?
Completion: True

Prompt: Hello, I'm reviewing records and need to know if growth of `CNC(=O)c1cc(Oc2cccc3nc(Nc4ccc(Oc5ccccc5)cc4)ccc23)ccn1` is below 80%. Could you check?
Completion: True

Prompt: Hello, I'm reviewing records and need to know if growth of `Cc1nc2ccc(-n3ncc(C(=O)c4cc5ccccc5[nH]4)c3N)cc2[nH]1` is below 80%. Could you check?
Completion: True

Prompt: Hello, I'm reviewing records and need to know if growth of `CNC(=O)CN1CCC(Oc2cc3c(Nc4cccc(Cl)c4F)ncnc3cc2OC)CC1` is below 80%. Could you check?
Completion: True

Prompt: Hello, I'm reviewing records and need to know if growth of `O=C(Nc1ccc(N=Nc2ccccc2)cc1)c1cccc2ccccc12` is below 80%. Could you check?
Completion: True

Prompt: Hello, I'm reviewing records and need to know if growth of `NC1(c2ccc(-c3nc4ccn5c(=O)[nH]nc5c4cc3-c3ccccc3)cc2)CCC1` is below 80%. Could you check?
Completion: True

Prompt: Hello, I'm reviewing records and need to know if growth of `CCN(CCN(C)C)C(=O)CNCc1cc(C(N)=O)ccn1` is below 80%. Could you check?
Completion: False

Prompt: Hello, I'm reviewing records and need to know if growth of `O=c1sn(-c2cccc3ccccc23)c(=O)n1Cc1ccccc1` is below 80%. Could you check?
Completion: False

Prompt: Hello, I'm reviewing records and need to know if growth of COc1cc2c(cc1OCCCCCN1CCN(c3ncnc4ccccc34)CC1)N=CC1CCCN1C2=O (stereo not drawn) is below 80%. Could you check?
Completion: True

Prompt: Hello, I'm reviewing records and need to know if growth of `C=CC(=O)Nc1cc2c(Nc3ccc(F)c(Cl)c3)ncnc2cc1OCCCN1CCOCC1` is below 80%. Could you check?
Completion: True

----------
System: SK-MEL-5 melanoma
EXPERIMENT: NCI-60 one-dose screen, 48 h (100 = growth as untreated, 0 = no growth, -100 = all killed)
PROTOCOL CONDITIONS: 10 µM unless noted
About 83,000 compounds went through this panel and 20% of them were active in at least one assay; those are over-represented in the sample as a whole.
RECORDED METRIC: growth (%)
The figure you give is taken to be in %; do not add the unit.

Example cases with answers are listed next.
smiles_repr=CCCCN1C(=O)c2cccc3c(-c4ccc5c(c4)ncn5C4CCCCC4)ccc(c23)C1=O recorded_metric=growth units_text=% result_number=107
smiles_repr=Cc1[nH]c(/C=C2\C(=O)Nc3ccc(F)cc32)c(C)c1C(=O)NC[C@H](O)CN1CCOCC1 recorded_metric=growth units_text=% result_number=21.4
smiles_repr=CO[C@H]1C[C@@H]2CC[C@@H](C)[C@@](O)(O2)C(=O)C(=O)N2CCCC[C@H]2C(=O)O[C@H]([C@H](C)C[C@@H]2CC[C@@H](O)[C@H](OC)C2)CC(=O)[C@H](C)/C=C(\C)[C@@H](O)[C@@H](OC)C(=O)[C@H](C)C[C@H](C)\C=C/C=C/C=C/1C recorded_metric=growth units_text=% result_number=14.2
smiles_repr=CCN(CC)CCOc1ccc(/C(=C(\C)c2ccc(Cl)cc2)c2ccc(Cl)cc2)cc1 recorded_metric=growth units_text=% result_number=38
smiles_repr=ClCc1ccc(-c2ccc(Cn3cnc4c(Cl)nc(Cl)nc43)cc2)cc1 recorded_metric=growth units_text=% result_number=-67.7
smiles_repr=COc1cc2c(cc1OCCCN1Cc3ccc(OCCCCC(=O)N4CCC(CCN5CCCC5)CC4)cc3C1)N=C(N)C21CCCC1 recorded_metric=growth units_text=% result_number=55.3

Now consider a different molecule.
Prompt: Entry `CS(=O)(=O)N1CCc2c(-c3cnc(N)nc3)nc(N3CCOCC3)nc21` : reported growth = ?
Completion: -3.03
